system: HCT-15; experiment: Growth inhibition of human HCT15 cells after 24 hrs by MTT assay; format: functional, cell-based; details: HCT-15, 24 h
parameter: pIC50
// pIC50 is dimensionless: -log10 of concentration (M)

Below are worked cases with known answers.
- compound: "O=C1C2CCCCC2C(=O)N1CCOCCOCCN1C(=O)C2CCCCC2C1=O (stereo not given)"
  target_under_test: "HCT-15"
  pIC50: 4.62
- compound: "O=C1c2nccnc2C(=O)N1CCCC1OCC2(CO1)COC(CCCN1C(=O)c3nccnc3C1=O)OC2 (stereo not given)"
  target_under_test: "HCT-15"
  pIC50: 4.64
- compound: "O=C1c2nc[nH]c2C(=O)N1CCN1C(=O)c2nc[nH]c2C1=O"
  target_under_test: "HCT-15"
  pIC50: 4.75

Note to self: pIC50 of C[C@@H]1C[C@@H]([C@H](O)CC2CC(=O)NC(=O)C2)C(=O)[C@@H](C)C1 [CYCLOHEXIMIDE] with HCT-15 was 4.28

So the reported pIC50 for O=C1C2CC=CCC2C(=O)N1CCOCCOCCN1C(=O)C2CC=CCC2C1=O (stereo not given) , on HCT-15, turned out to be 4.68

Where do the numbers come from? From ChEMBL document CHEMBL4041541.
